Cited source for all entries: ChEMBL document CHEMBL1136492

Reported pEC50 is given for each of the following compounds.
- Tested Target: Melanocortin receptor 4 (Homo sapiens)
- Sequence (P32245 whole entry): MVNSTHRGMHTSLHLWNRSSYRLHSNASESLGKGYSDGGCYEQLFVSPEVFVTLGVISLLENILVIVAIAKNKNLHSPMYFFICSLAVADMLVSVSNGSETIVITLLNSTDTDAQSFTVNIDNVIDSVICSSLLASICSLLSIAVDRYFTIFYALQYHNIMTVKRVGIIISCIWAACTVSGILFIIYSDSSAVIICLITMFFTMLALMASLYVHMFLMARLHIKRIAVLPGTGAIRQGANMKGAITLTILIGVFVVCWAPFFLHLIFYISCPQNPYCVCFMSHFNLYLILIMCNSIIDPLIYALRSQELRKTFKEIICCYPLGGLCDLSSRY
- Assay Details: Effective concentration for cAMP accumulation relative to alpha-MSH at human MC4R
To interpret pEC50, take it as minus log10 of a concentration measured in moles per litre.

Would you please look over these solved cases?
COc1ccc(-n2nc(Sc3ccc(Cl)cc3)cc(CC[C@@H](C)NC(=O)[C@H]3CCNC[C@@H]3c3ccccc3)c2=O)cc1 :: 6.63
COc1ccc(-n2nc(Sc3ccc(Cl)cc3)cc(CCC(C)NC(=O)[C@H]3CCNC[C@@H]3c3ccccc3)c2=O)cc1 (some centres undefined) :: 6.59

Record `COc1ccc(-n2nc(Sc3ccc(Cl)cc3)cc(CC[C@H](C)NC(=O)[C@H]3CNC[C@@H]3c3ccccc3)c2=O)cc1` ; system Melanocortin receptor 4 (Homo sapiens); pEC50 = 5.24

###

- Tested Target: Melanocortin receptor 4 (Homo sapiens)
- Assay Details: Concentration required to inhibit binding of [125I]-NDP-alpha-MSH from membranes prepared from CHO cells expressing human melanocortin subtype-4-receptor (MC4R)
- Type: cell membranes
Group membership follows IC50 per the scheme b0 (below 200 nM), b1 (200 nM to below 3000 nM), b2 (3000 nM or more)

Known results for compounds:
COc1ccc(-n2nc(Sc3ccc(Cl)cc3)cc(CC[C@H](C)NC(=O)[C@H]3CNCC[C@H]3c3ccccc3)c2=O)cc1 :: b2
COc1ccc(-n2nc(Sc3ccc(Cl)cc3)cc(CCC(=O)N[C@@H]3CCc4ccccc4NC3=O)c2=O)cc1 :: b0
COc1ccc(-n2nc(Sc3ccc(Cl)cc3)cc(CC[C@H](C)NC(=O)[C@H]3CNCC[C@@H]3c3ccccc3)c2=O)cc1 :: b1
COc1ccc(-n2nc(Sc3ccc(Cl)cc3)cc(CCCNC(=O)[C@H]3CCNC[C@@H]3c3ccccc3)c2=O)cc1 :: b1
COc1ccc(-n2nc(Sc3ccc(Cl)cc3)cc(CC[C@@H](C)NC(=O)[C@H]3CCNC[C@@H]3c3ccccc3)c2=O)cc1 :: b0
COc1ccc(-n2nc(Sc3ccc(Cl)cc3)cc(C(C)CCNC(=O)[C@H]3CNCC[C@@H]3c3ccccc3)c2=O)cc1 (some centres undefined) :: b2

Now consider a different compound.
For this compound, which bin applies? `COc1ccc(-n2nc(Sc3ccc(Cl)cc3)cc(CCCNC(=O)[C@H]3CNC[C@@H]3c3ccccc3)c2=O)cc1`
b1
